Attribution: patent US8530648B2

Molecular target: hOx2R (Homo sapiens (Human))
Test: Calcium accumulation in cells (FLIPR), hOx2R
Type: cell-based
Conditions: measured at a concentration of 10 μM of compound
Quick reference: inhibition at 10 µM of the listed items.

COMPOUND STRUCTURE STRING	inhibition at 10 µM [%]
N#Cc1ccc(CN2CCCC3(CCN(c4cnc5ccccc5n4)CC3)C2=O)cn1	13
O=C1N(Cc2ccc(Cl)nc2)CCCC12CCN(c1cnc3ccccc3n1)CC2	32
COc1ccnc(CN2CCCC3(CCN(c4cnc5ccccc5n4)CC3)C2=O)c1OC	38
Cc1cccc(CN2CCCC3(CCN(c4cnc5ccccc5n4)CC3)C2=O)n1	33
Cn1nccc1-c1ccccc1CN1CCCC2(CCN(c3cnc4ccccc4n3)CC2)C1=O	32
Cn1c(CN2CCCC3(CCN(c4cnc5ccccc5n4)CC3)C2=O)nc2ccccc21	33

###

Target: hOx2R (Homo sapiens (Human), UniProt O43614)
Sequence (O43614 whole entry): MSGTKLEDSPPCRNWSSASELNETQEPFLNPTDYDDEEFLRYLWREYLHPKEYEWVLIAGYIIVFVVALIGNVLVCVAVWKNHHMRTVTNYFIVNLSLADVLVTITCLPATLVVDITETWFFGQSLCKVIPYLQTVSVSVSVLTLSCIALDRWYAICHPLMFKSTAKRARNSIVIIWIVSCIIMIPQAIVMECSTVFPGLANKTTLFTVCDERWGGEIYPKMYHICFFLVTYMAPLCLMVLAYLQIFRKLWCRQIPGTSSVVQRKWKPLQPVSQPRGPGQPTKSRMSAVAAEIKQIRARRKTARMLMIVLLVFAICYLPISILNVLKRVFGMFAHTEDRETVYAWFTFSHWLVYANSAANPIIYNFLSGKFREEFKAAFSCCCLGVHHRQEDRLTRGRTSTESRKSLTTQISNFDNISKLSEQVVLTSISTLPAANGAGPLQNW
Assay: Calcium accumulation in cells (FLIPR), hOx2R
Conditions: inhibition of orexin A induced calcium accumulation, Cheng and Prusoff correction
RECORDED METRIC: Ki (nM)

COMPOUND STRUCTURE STRING	OBSERVED
COc1ccc(-c2nnc(CN3CCCC4(CCN(c5cnc6ccccc6n5)CC4)C3=O)o2)cc1	1180
O=C1N(Cc2cccc3c2OCCO3)CCCC12CCN(c1nccc3occc13)CC2	81
Cc1[nH]c2ccccc2c1CN1CCCC2(CCN(c3cnc4ccccc4n3)CC2)C1=O	244
O=C1N(Cc2cnn3ccccc23)CCCC12CCN(c1cnc3ccccc3n1)CC2	232
O=C1CCCC2(CCN(c3nc4cc(Cl)ccc4o3)CC2)N1Cc1cccc2[nH]ccc12	11
O=C1N(Cc2cccc3c2OCCO3)CCCC12CCN(c1cnc3ccccc3n1)CC2	46
COc1ccc2[nH]c(N3CCC4(CCCN(Cc5c[nH]c6ccccc56)C4=O)CC3)nc2c1	745
O=C1N(Cc2ccccc2-n2nccn2)CCCC12CCN(c1cnc3ccccc3n1)CC2	39
O=C1N(Cc2ncoc2-c2ccccc2)CCCC12CCN(c1cnc3ccccc3n1)CC2	8
COc1cccc(CN2CCCC3(CCN(c4cnc5ccccc5n4)CC3)C2=O)c1F	225
O=C1CCCC2(CCN(c3nc4ccc(Cl)cc4o3)CC2)N1Cc1cccc2[nH]ccc12	105
Cc1oc(-c2cscn2)nc1CN1CCCC2(CCN(c3cnc4ccccc4n3)CC2)C1=O	831
O=C1N(Cc2c[nH]c3ccccc23)CCCC12CCN(c1cnc3ccccc3c1)CC2	32
O=C1N(Cc2cccc(-c3ncccn3)c2)CCCC12CCN(c1cnc3ccccc3n1)CC2	62
Cn1cc(CN2CCCC3(CCN(c4cnc5ccccc5n4)CC3)C2=O)c2ccccc21	29
Cn1cc(CN2C(=O)CCCC23CCN(c2cnc4ccccc4n2)CC3)c2cccnc21	39
Cc1noc(-c2ccccc2CN2CCCC3(CCN(c4cnc5ccccc5n4)CC3)C2=O)n1	25
COCc1cccc(CN2CCCC3(CCN(c4cnc5ccccc5n4)CC3)C2=O)c1	96
O=C1N(Cc2cccc(-c3ccccn3)c2)CCCC12CCN(c1cnc3ccccc3n1)CC2	47
O=C1N(Cc2c[nH]c3ccccc23)CCCC12CCN(c1nc3cc(Cl)ccc3o1)CC2	524
O=C1N(Cc2cccc(-n3nccn3)c2)CCCC12CCN(c1cnc3ccccc3n1)CC2	13
Cc1nnc(N2CCC3(CCCN(Cc4c[nH]c5ccccc45)C3=O)CC2)c2ccccc12	320
O=C1N(Cc2nnnn2-c2ccccc2)CCCC12CCN(c1cnc3ccccc3n1)CC2	725
Cc1ccc(-n2nccn2)c(CN2CCCC3(CCN(c4cnc5ccccc5n4)CC3)C2=O)c1	137
O=C1N(Cc2cncn2-c2ccccc2)CCCC12CCN(c1cnc3ccccc3n1)CC2	945
O=C1N(Cc2c[nH]c3ccccc23)CCCC12CCN(c1cc(-c3ccccc3)ncn1)CC2	115
O=C1N(Cc2c[nH]c3ccccc23)CCCC12CCN(c1ncnc3[nH]ccc13)CC2	239
O=C1N(Cc2cccc3ccccc23)CCCC12CCN(c1cnc3ccccc3n1)CC2	30
O=C1N(Cc2cccc3nsnc23)CCCC12CCN(c1cnc3ccccc3n1)CC2	82
Cc1cc(C)cc(CN2CCCC3(CCN(c4cnc5ccccc5n4)CC3)C2=O)c1	113
Cc1ncc(CN2CCCC3(CCN(c4cnc5ccccc5n4)CC3)C2=O)c2c1OC(C)(C)OC2	249
N#Cc1cccc(CN2CCCC3(CCN(c4cnc5ccccc5n4)CC3)C2=O)c1	649
O=C1N(Cc2c[nH]c3ccccc23)CCCC12CCN(c1cnc3nccnc3c1)CC2	621
